Entry source: patent US20120316071A1

Attribute: ELISA signal
- STUDY_TARGET: T1, Recombinant Human DLL4 (delta-like protein 4) (human, UniProt Q9NR61 27-524)
- T1 construct: Bought recombinant protein (R&D Systems Cat#1506-D4/CF); also called rHuman DLL4; Delta-like 4
- TEST_PROTOCOL: ELISA, DLL4 coated on plate; Fab at 100 (head prints µM, text says nM)
Write no unit; give the number alone.

Study these solved cases before continuing.
INSERT INTO measurements (binder, value_measured) VALUES
  ('Fab VH5-51_IGHD5-18*01>3_IGHJ4*01 G100K/G104T G24T/S28R/G35V (H:KT TRV) & V3-4_IGLJ1*01 (Fab, V domains shown, Tested as a Fab made in E. coli; also called H:KT TRV & L:wt; Wildtype (light chain)) VH: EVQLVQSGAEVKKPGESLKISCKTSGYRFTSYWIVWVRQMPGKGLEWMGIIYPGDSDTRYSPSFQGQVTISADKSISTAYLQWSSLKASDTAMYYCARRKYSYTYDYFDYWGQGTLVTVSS VL: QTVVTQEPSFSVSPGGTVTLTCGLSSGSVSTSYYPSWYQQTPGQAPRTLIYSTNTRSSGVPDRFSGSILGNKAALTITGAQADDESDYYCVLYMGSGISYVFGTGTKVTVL', 0.16),
  ('Fab VH5-51_IGHD5-18*01>3_IGHJ4*01 G100K/G104T G24T/S28R/G35V (H:KT TRV) & V3-4_IGLJ1*01 V91L/S96P S52M (Fab, V domains shown, Tested as a Fab made in E. coli; also called H:KT TRV & L:LP S52M) VH: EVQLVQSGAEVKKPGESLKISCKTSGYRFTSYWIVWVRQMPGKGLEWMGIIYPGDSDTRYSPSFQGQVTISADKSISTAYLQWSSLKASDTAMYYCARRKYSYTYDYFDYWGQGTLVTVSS VL: QTVVTQEPSFSVSPGGTVTLTCGLSSGSVSTSYYPSWYQQTPGQAPRTLIYMTNTRSSGVPDRFSGSILGNKAALTITGAQADDESDYYCLLYMGPGISYVFGTGTKVTVL', 0.24),
  ('Fab VH5-51_IGHD5-18*01>3_IGHJ4*01 G100K/G104T G24T/S28R/G35V (H:KT TRV) & V3-4_IGLJ1*01 V91L/S96P (L:LP) (Fab, V domains shown, Tested as a Fab made in E. coli; also called H:KT TRV & L:LP) VH: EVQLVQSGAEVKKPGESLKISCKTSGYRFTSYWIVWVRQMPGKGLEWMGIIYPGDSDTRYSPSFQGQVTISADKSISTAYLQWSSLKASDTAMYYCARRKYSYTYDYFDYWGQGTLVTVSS VL: QTVVTQEPSFSVSPGGTVTLTCGLSSGSVSTSYYPSWYQQTPGQAPRTLIYSTNTRSSGVPDRFSGSILGNKAALTITGAQADDESDYYCLLYMGPGISYVFGTGTKVTVL', 0.34);

Continue with the binder presented below.
Exercise: Fill in the blank: the reported ELISA signal of Fab VH5-51_IGHD5-18*01>3_IGHJ4*01 G100K/G104T G24T/S28R/G35V (H:KT TRV) & V3-4_IGLJ1*01 V91L/S96P S52G (Fab, V domains shown, Tested as a Fab made in E. coli; also called H:KT TRV & L:LP S52G) VH: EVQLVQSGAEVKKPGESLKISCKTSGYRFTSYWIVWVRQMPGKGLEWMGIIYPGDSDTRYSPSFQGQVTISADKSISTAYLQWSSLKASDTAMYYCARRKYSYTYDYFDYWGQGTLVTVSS VL: QTVVTQEPSFSVSPGGTVTLTCGLSSGSVSTSYYPSWYQQTPGQAPRTLIYGTNTRSSGVPDRFSGSILGNKAALTITGAQADDESDYYCLLYMGPGISYVFGTGTKVTVL is ____.
Key: 0.69
